Taken from patent US4324796A.

This section presents molecules with their documented LD50 values.
Experiment: in vivo
Settings: mouse, po, Table I, mice p.o., 7 days observation, read-out: LD50 (acute toxicity)
Give the number; mg/kg is assumed, so skip it.

[ask] What does the record list as LD50 for CCOC(=O)C1(CCCCCc2ccc(Cl)cc2)CO1 (stereo not shown) ?
[reply] 275

[ask] What does the record list as LD50 for CCOC(=O)C1(CCCc2ccc(Cl)cc2)CO1 (stereo not shown) ?
[reply] 730

[ask] What does the record list as LD50 for CCOC(=O)C1(CCCCCc2ccccc2)CO1 (stereo not shown) ?
[reply] 230
